// reported MBC per item
# Test system: Salmonella enteritidis
# assay-method-text: Antibacterial activity against Salmonella enteritidis ATCC 13076 after 24 hrs by microdilution test
# Format: functional, Salmonella enterica subsp. enterica serovar Enteritidis
# run-conditions: Salmonella enterica, ATCC 13076, 24 h
I only need the number, in µg/mL, no unit after it.

The following compounds have reported results that may help.
| compound | outcome-measure | units-symbol | data-value |
| --- | --- | --- | --- |
| COc1cc(Cc2n[nH]c(=S)n2-c2ccc(Cl)cc2)c(S(=O)(=O)N2CCOCC2)cc1OC | MBC | µg/mL | 150 |
| COc1cc(Cc2n[nH]c(=S)n2-c2ccccc2)c(S(=O)(=O)N2CCCCC2)cc1OC | MBC | µg/mL | 150 |
| CN[C@@H]1[C@H](O[C@H]2[C@H](O[C@H]3[C@H](O)[C@@H](O)[C@H](N=C(N)N)[C@@H](O)[C@@H]3N=C(N)N)O[C@@H](C)[C@]2(O)C=O)O[C@@H](CO)[C@H](O)[C@H]1O [STREPTOMYCIN] | MBC | µg/mL | 100 |
| COc1cc(Cc2n[nH]c(=S)n2-c2ccccc2)c(S(=O)(=O)N2CCOCC2)cc1OC | MBC | µg/mL | 150 |
| COc1cc(Cc2n[nH]c(=S)n2-c2ccccc2)c(S(=O)(=O)N(C)C)cc1OC | MBC | µg/mL | 150 |
| COc1cc(Cc2n[nH]c(=S)n2-c2ccc(Cl)cc2)c(S(=O)(=O)N2CCCCC2)cc1OC | MBC | µg/mL | 150 |

**Q:** Tell me MBC reported for O=C(N[C@H](CO)[C@H](O)c1ccc([N+](=O)[O-])cc1)C(Cl)Cl [CHLORAMPHENICOL]
**A:** 200

Data provenance is ChEMBL document CHEMBL1143237.
